# testedOn: Protein (capsid assembly) (Hepatitis B virus genotype D subtype ayw)
# Sequence (P03146 whole entry): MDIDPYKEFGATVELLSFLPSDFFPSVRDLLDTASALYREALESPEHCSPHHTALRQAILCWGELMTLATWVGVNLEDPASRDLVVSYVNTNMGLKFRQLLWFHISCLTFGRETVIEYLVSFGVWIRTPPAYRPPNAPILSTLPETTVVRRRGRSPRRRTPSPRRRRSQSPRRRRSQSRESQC
# measurementProtocol: Protein inhibition (capsid assembly inhibition), Table 1
# Type: biochemical
# statedConditions: NVR value of the same run in brackets; read-out: Protein EC50
observationType: EC50 (µM)
Express it in µM; write the number only.

// solved cases for EC50 follow
{"columns": ["smilesRepresentation", "measurement"],
 "data": [
  ["O=C(Nc1ccc(F)c(Cl)c1)N(Cc1nnc2n1CCCCC2)c1ccc(C(F)(F)F)cc1", 5],
  ["O=C(Nc1ccc(F)c(Cl)c1)N(Cc1nnc2n1CCCCCC2)c1ccc2c(c1)OCO2", 3.6]
]}

In the following, a different molecule is considered.
# O=C(Nc1ccc(F)c(Cl)c1)N(Cc1nnc2n1CCCCC2)c1ccc2ncsc2c1 with Protein (capsid assembly) (Hepatitis B virus genotype D subtype ayw): EC50 is 2.2
